Below: a set of entries, each annotated with reported EC50.
Molecular target: human α7 nAChR (Homo sapiens, UniProt P36544)
Construct: host or cells: GH4C1 cells (pituitary tumor, immortalized cell line)
Sequence (P36544 23-502): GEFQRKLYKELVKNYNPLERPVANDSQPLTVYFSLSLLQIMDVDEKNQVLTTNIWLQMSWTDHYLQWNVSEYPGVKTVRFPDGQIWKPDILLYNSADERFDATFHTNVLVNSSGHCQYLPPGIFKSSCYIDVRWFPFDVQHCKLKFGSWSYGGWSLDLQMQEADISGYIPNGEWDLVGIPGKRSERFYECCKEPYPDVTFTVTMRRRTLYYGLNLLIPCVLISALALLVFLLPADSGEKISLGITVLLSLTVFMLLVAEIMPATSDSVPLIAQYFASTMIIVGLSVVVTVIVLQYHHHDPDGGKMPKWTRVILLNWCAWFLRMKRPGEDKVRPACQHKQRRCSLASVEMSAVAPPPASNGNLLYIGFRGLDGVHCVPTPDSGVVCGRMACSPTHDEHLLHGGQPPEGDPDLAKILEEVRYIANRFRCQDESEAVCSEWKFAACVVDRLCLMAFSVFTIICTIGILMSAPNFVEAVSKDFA
Assay: α7 nAChR FLIPR (Fluorometric Imaging Plate Reader) Ca2+ assay, agonist EC50
Assay type: cell-based
Conditions: GH4C1 cells stably transfected with human α7 nAChR; Fluo-4 Ca2+ fluorescence; Examples 194 to 205 tested as the HCl salt; read-out: pEC50 value (negative logarithm of the agonist EC50) (converted)

Some compounds with recorded EC50:
>  <structure_notation>
O=C(Nc1ccc(-c2nnc(NCCCN3CCCCC3)o2)cc1)c1ccco1

>  <measurement_kind>
EC50

>  <measured>
≤ 1000 nM

$$$$
>  <structure_notation>
O=C(Nc1ccc(-c2nnc(NCCCCN3CCOCC3)o2)cc1)c1ccccc1

>  <measurement_kind>
EC50

>  <measured>
≤ 1000 nM

$$$$
>  <structure_notation>
COc1cc(NC(=O)c2ccccc2)ccc1-c1nnc(NCCCCN2CCCC2)o1

>  <measurement_kind>
EC50

>  <measured>
≤ 100 nM

$$$$
>  <structure_notation>
O=C(Nc1ccc(-c2nnc(NCCCCN3CCC(F)CC3)o2)c(F)c1)c1ccccc1F

>  <measurement_kind>
EC50

>  <measured>
≤ 100 nM

$$$$
>  <structure_notation>
O=C(Nc1ccc(-c2nnc(NCCCN3CCCC3)o2)c(F)c1)c1ccccc1F

>  <measurement_kind>
EC50

>  <measured>
≤ 1000 nM

$$$$

Incoming: Please give the documented EC50 of O=C(Nc1ccc(-c2nnc(NCCCCN3CCOCC3)o2)c(C(F)(F)F)c1)C1CCCCC1
Outgoing: ≤ 1000 nM

Incoming: Provide one value: measured EC50 of COc1cc(NC(=O)c2ccccc2)ccc1-c1nnc(NCCCCN2CCOCC2)o1
Outgoing: ≤ 100 nM

Incoming: For the compound O=C(Nc1ccc(-c2nnc(NCCCCN3CCCCC3)o2)c(F)c1)c1ccccc1 , give its reported EC50.
Outgoing: ≤ 100 nM

* * *

Biological target: human α7 nAChR (Homo sapiens, UniProt P36544)
Construct: host or cells: GH4C1 cells (pituitary tumor, immortalized cell line)
Experiment: α7 nAChR FLIPR (Fluorometric Imaging Plate Reader) Ca2+ assay, agonist EC50
Format: cell-based
Conditions: GH4C1 cells stably transfected with human α7 nAChR; Fluo-4 Ca2+ fluorescence; Examples 194 to 205 tested as the HCl salt; read-out: pEC50 value (negative logarithm of the agonist EC50) (converted)
The entries below come with measured EC50 values attached.

These solved cases illustrate the format of a correct answer.
>  <structure_notation>
CCN(CC)CCCCNc1nnc(-c2ccc(NC(=O)c3ccccc3)cc2Cl)o1

>  <measurement_kind>
EC50

>  <measured>
≤ 0.1 µM

$$$$
>  <structure_notation>
CCCC(=O)Nc1ccc(-c2nnc(NCCCN(CC)CC)o2)c(OC)c1

>  <measurement_kind>
EC50

>  <measured>
≤ 1 µM

$$$$
>  <structure_notation>
O=C(Nc1ccc(-c2nnc(NCCCCN3CCOCC3)o2)c(Cl)c1)C1CCCCC1

>  <measurement_kind>
EC50

>  <measured>
≤ 1 µM

$$$$

Switching to the query record.
Incoming: Provide EC50, tested on human α7 nAChR (Homo sapiens, UniProt P36544), for CCN(CC)CCCCNc1nnc(-c2ccc(NC(=O)c3ccccc3F)cc2C(F)(F)F)o1 .
Outgoing: ≤ 0.1 µM

Every entry's value here was drawn from patent US20090105217A1.
